Tested on: Recombinant human Factor IX (rhFIX, Genetics Institute) (human, UniProt P00740 47-461)
Sequence (P00740 47-461 limits assumed): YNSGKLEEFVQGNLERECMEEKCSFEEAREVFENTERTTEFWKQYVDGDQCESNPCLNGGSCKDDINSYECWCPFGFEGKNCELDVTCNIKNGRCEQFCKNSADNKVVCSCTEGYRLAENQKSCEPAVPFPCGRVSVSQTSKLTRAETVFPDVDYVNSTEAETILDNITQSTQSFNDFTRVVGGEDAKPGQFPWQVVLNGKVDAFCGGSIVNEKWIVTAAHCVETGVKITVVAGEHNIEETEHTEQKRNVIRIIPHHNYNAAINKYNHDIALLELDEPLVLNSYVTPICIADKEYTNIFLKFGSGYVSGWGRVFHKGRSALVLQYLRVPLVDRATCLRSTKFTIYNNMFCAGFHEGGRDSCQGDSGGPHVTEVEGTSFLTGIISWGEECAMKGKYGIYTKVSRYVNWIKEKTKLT
Test details: SPR (BIAcore), antibody bound to immobilized protein A, Factor IX in solution
Property name: kon (M⁻¹ s⁻¹)
Enter your answer as a number in M⁻¹ s⁻¹; do not include the unit.

In the examples that follow, each entry is paired with its recorded kon.
| Binder | Reported |
| --- | --- |
| murine anti-Factor IX monoclonal antibody BC2 (antibody, mouse IgG2a, V domains shown, also called BC2 mAb; BC2 Antibody) VH: QIQLVQSGPELKKPGETVKISCKASGYTFTNYGMNWVKQAPGKGLKWMGWINTRNGKSTYVDDFKGRFAFSLESSASTANLQIDNLKDEDTATYFCTREGNMDGYFPFTYWGQGTLVTVSA VL: QIVLSQSPAILSASPGEKVTMTCRASSSVNYMHWYQQKPGSSPKPWIYATSNLASGVPARFSGSGSGTSYSLTISRVEAEDAATYYCQQWSINPRTFGGGTKLEIKR | 480000 |
| humanized anti-human Factor IX monoclonal antibody SB 249413 (antibody, human IgG1, V domains shown, also called F9HZHC 1-0 / F9HZLC 1-0) VH: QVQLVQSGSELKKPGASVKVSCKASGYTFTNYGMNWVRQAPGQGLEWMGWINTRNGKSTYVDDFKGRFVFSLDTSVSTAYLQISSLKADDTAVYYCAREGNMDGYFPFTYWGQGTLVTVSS VL: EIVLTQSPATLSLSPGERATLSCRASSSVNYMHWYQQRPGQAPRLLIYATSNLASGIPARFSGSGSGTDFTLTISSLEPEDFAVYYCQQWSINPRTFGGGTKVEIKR | 650000 |

I would be grateful if you could share the reported kon for humanized anti-human Factor IX monoclonal antibody SB 249415 (antibody, human IgG1, V domains shown, Human IgG1 and kappa constant regions from the vectors; also called F9HZHC 1-1 / F9HZLC 1-1) VH: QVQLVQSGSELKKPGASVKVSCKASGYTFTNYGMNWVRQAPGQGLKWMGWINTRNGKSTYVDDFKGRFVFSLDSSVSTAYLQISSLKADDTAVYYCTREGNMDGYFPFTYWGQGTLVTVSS VL: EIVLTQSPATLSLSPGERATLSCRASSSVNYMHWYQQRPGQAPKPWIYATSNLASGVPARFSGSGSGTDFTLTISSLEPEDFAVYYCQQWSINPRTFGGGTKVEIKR .
750000

I would be grateful if you could share the reported kon for humanized anti-human Factor IX monoclonal antibody SB 257732 (antibody, human IgG1, V domains shown, Human IgG1 and kappa constant regions from the vectors; also called F9HZHC 3-0 / F9HZLC 3-0) VH: QIQLVQSGSELKKPGASVKVSCKASGYTFTNYGMNWVRQAPGQGLEWMGWINTRNGKSTYVDDFKGRFVFSLDTSVSTAYLQISSLKAEDTAVYFCTREGNMDGYFPFTYWGQGTLVTVSS VL: QIVLTQSPSSLSASVGDRVTITCRASSSVNYMHWYQQKPGKAPKPWIYATSNLASGVPSRFSGSGSGTDYTLTISSLQPEDFATYYCQQWSINPRTFGGGTKLEIKR .
1.1e+06
